Ref: ChEMBL document CHEMBL4261559

# TARGET ENTITY: Gonadotropin-releasing hormone receptor (Homo sapiens)
# Sequence (P30968 whole entry): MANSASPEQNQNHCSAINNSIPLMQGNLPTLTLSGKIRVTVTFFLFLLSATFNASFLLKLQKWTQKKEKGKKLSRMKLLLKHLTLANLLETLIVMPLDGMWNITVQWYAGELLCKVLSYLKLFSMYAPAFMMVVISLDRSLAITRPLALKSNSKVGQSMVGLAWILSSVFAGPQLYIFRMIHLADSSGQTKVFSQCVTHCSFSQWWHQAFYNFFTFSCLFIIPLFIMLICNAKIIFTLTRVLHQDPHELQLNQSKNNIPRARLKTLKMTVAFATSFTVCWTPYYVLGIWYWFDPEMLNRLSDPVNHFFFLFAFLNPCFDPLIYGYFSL
# PROTOCOL DESCRIPTION: Antagonist activity at N-terminal FLAG-tagged human full-length GnRHR expressed in HEK293T cells assessed as inhibition of GnRH-induced calcium mobilization preincubated for 15 mins followed by agonist addition by FLIPR assay
pIC50: −log10 of the molar value.
MEASURED QUANTITY: pIC50

{"STRUCTURE SMILES STRING": "CC(C)(C)c1ccc(-c2nc3c(N4CCN(Cc5cccc6nccnc56)CC4)cccc3[nH]2)cc1", "pIC50": 6.20}
{"STRUCTURE SMILES STRING": "COc1cc(OC)c(NC(=O)c2ccc(Cc3cc4c(cc3C)C(C)(C)CCC4(C)C)o2)c(OC)c1", "pIC50": 6.00}

[A] CC(C)(C)c1ccc(-c2nc3c(N4CCN(Cc5cn(CCF)nn5)CC4)cccc3[nH]2)cc1
[B] CC(=O)N[C@@H]1[C@@H](OC(C)=O)[C@H](OC(C)=O)[C@@H](COC(C)=O)O[C@H]1n1cc(CN2CCN(c3cccc4[nH]c(-c5ccc(C(C)(C)C)cc5)nc34)CC2)nn1
## Input Of A and B , whose reported pIC50 is numerically smaller? Please indicate the selected item by its label.
## Output B
(B: 5.10, A: 6.10)
